molecular target: B1R receptor of the rat (CHO K1 cells stably transfected with the B1R gene of the rat) (Rattus norvegicus); construct: expressed in transfected cells; host or cells: CHO K1 cells (Chinese hamster ovary), stably transfected; experiment: Functional study on the bradykinin receptor 1 (B1R), Ca2+ fluorescence (Fluo-4) FLIPR/Novostar assay, rB1R cells; assay type: cell-based; conditions: CHO-K1, 10 μM, read-out: % inhibition (rat B1R) at 10 μM
Sequence (P97583 whole entry): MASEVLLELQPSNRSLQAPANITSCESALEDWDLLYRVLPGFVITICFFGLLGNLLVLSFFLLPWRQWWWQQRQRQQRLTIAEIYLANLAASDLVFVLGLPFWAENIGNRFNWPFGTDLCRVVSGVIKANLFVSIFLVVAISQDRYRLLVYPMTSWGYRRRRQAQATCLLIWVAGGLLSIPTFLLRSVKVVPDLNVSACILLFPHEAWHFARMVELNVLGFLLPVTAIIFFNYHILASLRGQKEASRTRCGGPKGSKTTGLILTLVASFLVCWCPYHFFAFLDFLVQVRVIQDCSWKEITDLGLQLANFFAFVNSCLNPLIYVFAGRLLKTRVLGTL
Please mark TRUE if the recorded inhibition at 10 µM is equal to or greater than 80%, and FALSE if it falls below.

compound: CC(C)CN(C(=O)c1ccccc1Cl)[C@@H]1CCc2ccc(C(=O)N(C)C3CCN(c4ccncc4)CC3)cc21 [Example H-65]
labelValue: TRUE
--
compound: CN(C(=O)c1ccc2c(c1)[C@H](NC(=O)c1ccccc1F)CC2)C1CCN(c2ccncc2)CC1 [Example H-29]
labelValue: TRUE
--
compound: COc1c(C)cnc(CN2CCC(N(C)C(=O)c3ccc4c(c3)[C@H](NC(=O)c3ccccc3Cl)CC4)CC2)c1C [Example H-131]
labelValue: FALSE
--
compound: CN(C)c1nccc(N2CCC(N(C)C(=O)c3ccc4c(c3)[C@H](NC(=O)c3ccccc3Cl)CC4)CC2)n1 [Example H-118]
labelValue: TRUE
--
compound: CN(C(=O)c1ccc2c(c1)[C@H](NC(=O)c1cncc3ccccc13)CC2)C1CCN(c2ccncc2)CC1 [Example H-83]
labelValue: TRUE
--
compound: CC(C)CC(=O)N(C(C)C)[C@@H]1CCc2ccc(C(=O)N(C)C3CCN(c4ccnc(N(C)C)c4)CC3)cc21 [Example H-119]
labelValue: FALSE
